# tgt: Protein-tyrosine kinase 2-beta (Homo sapiens)
# measurementConditions: at 1 µM
assayEndpoint: inhibition (%)
Give the value, in units of %, as a plain number.

{"columns": ["smilesEntry", "tgt", "assayEndpoint", "obsValue"],
 "data": [
  ["CCn1c(-c2nonc2N)nc2c(C#CC(C)(C)O)ncc(OC[C@@H]3CCCN3)c21", "Protein-tyrosine kinase 2-beta (Homo sapiens)", "inhibition", 23],
  ["Nc1nonc1-c1nc2cnccc2n1C1CCCCC1", "Protein-tyrosine kinase 2-beta (Homo sapiens)", "inhibition", -8.39],
  ["COc1cccc(COc2cc(-n3cnc4ccccc43)sc2C(N)=O)c1", "Protein-tyrosine kinase 2-beta (Homo sapiens)", "inhibition", -2.02],
  ["COc1cc2c(cc1Nc1nc(Nc3ccsc3C(N)=O)c3cc[nH]c3n1)N(C(=O)CN(C)C)CCC2", "Protein-tyrosine kinase 2-beta (Homo sapiens)", "inhibition", 95.6],
  ["Fc1ccc(-c2ncn(C3CCNCC3)c2-c2ccnc(Oc3ccccc3)n2)cc1", "Protein-tyrosine kinase 2-beta (Homo sapiens)", "inhibition", 6.66]
]}

Query compound follows.
Given Cc1cc(-c2ccco2)cc(C)c1/C=C/c1cncc(-c2nn[nH]n2)c1 , state its recorded inhibition.
0

* * *

# tgt: Cyclin-dependent kinase 4 (Homo sapiens)
# measurementConditions: at 0.1 µM
# Description: GSK_PKIS: CDK4/cyclinD mean inhibition at 0.1 uM [Nanosyn]
assayEndpoint: inhibition (%)
Give the value, in units of %, as a plain number.

{"columns": ["smilesEntry", "resultUnit", "inhibition"],
 "data": [
  ["CCn1c(-c2nonc2N)nc2c(C#CC(C)(C)O)ncc(OC[C@@H]3CCCN3)c21", "%", 0.04],
  ["CCn1c(-c2nonc2N)nc2c(C#CC(C)(C)O)nc(O[C@@H](CN)c3ccccc3)cc21", "%", 1.37]
]}

Query compound follows.
Given Fc1ccc(-c2ncn(C3CCNCC3)c2-c2ccnc(Oc3ccccc3)n2)cc1 , state its recorded inhibition.
-3.54

* * *

# tgt: Casein kinase I isoform alpha (Homo sapiens) (UniProt P48729)
# Sequence (P48729 2-337 limits assumed): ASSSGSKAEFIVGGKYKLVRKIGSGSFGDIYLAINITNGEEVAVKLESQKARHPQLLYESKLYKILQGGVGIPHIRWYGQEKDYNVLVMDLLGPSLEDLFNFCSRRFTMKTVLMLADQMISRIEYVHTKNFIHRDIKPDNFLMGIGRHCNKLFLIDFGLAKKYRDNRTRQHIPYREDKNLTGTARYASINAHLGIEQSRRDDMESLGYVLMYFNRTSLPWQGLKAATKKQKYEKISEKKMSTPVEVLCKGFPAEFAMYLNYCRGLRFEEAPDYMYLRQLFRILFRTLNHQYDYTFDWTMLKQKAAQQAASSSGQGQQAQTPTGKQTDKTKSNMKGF
# measurementConditions: at 1 µM
Listed next: entries and their corresponding inhibition.
Give the value, in units of %, as a plain number.

{"columns": ["smilesEntry", "inhibition, %"],
 "data": [
  ["COc1cccc(COc2cc(-n3cnc4ccccc43)sc2C(N)=O)c1", -2.7],
  ["CCn1c(-c2nonc2N)nc2c(C#CC(C)(C)O)ncc(OC[C@@H]3CCCN3)c21", -2.58]
]}

Query compound follows.
Form entry - test system: Casein kinase I isoform alpha (Homo sapiens) (UniProt P48729); read-out: inhibition; compound: CCn1c(-c2nonc2N)nc2c(C#CC(C)(C)O)nc(O[C@@H](CN)c3ccccc3)cc21;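 note: each value is a mean percent inhibition of the kinase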
4.15

* * *

Listed next: entries and their corresponding inhibition.
# tgt: Protein kinase C alpha type (Homo sapiens) (UniProt P17252)
# measurementConditions: at 0.1 µM
Give the value, in units of %, as a plain number.

{"columns": ["smilesEntry", "resultUnit", "inhibition"],
 "data": [
  ["COc1cc(C=NNc2ncnc3c2cnn3Cc2ccccc2)ccc1O", "%", -0.63],
  ["COc1cccc(-n2ncc3c(N/N=C/c4ccncc4)ncnc32)c1", "%", 2.71]
]}

Form entry - test system: Protein kinase C alpha type (Homo sapiens) (UniProt P17252); read-out: inhibition; compound: COc1cccc(COc2cc(-n3cnc4ccccc43)sc2C(N)=O)c1;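 note: each value is the mean percent inhibition of PKC-alpha kinase activity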
-0.54
